READOUT: melting point

Example results:
O=C(/C=C/c1ccc2c(=O)n(CCc3ccccc3)cnc2c1)NO [Compound 1h]    197 to 199 °C (dec.)
CCc1nc2cc(/C=C/C(=O)NO)ccc2c(=O)n1CCc1ccc(F)cc1 [Compound 1n]    195 to 197 °C (dec.)
Cc1nc2cc(/C=C/C(=O)Nc3ccccc3N)ccc2c(=O)n1CCc1ccccc1 [Compound 6a]    246 to 248 °C (dec.)
CCc1nc2cc(/C=C/C(=O)NO)ccc2c(=O)n1CCc1ccc(OC)cc1 [Compound 1m]    215 to 217 °C

Next up:
Sample CCc1nc2cc(/C=C/C(=O)NO)ccc2c(=O)n1CCc1ccccc1 [Compound 1i] ; melting point observed: 209 to 211 °C
